Molecular target: T1, human EGFRvIII protein on the cell surface (human, UniProt P00533 25-1210)
T1 construct: whole, on cells; the cell line is named under assay; also called hEGFRvIII; U87MG-hEGFRvIII
Assay: FACS on U87MG-EGFRvIII cells
Listing: Maximum mean fluorescence intensity of selected binders

{"binder": "Humanized antibody h75G7C6-16 (antibody, human IgG1, V domains shown, also called VH-g2/VL-g3) VH: QVQLVQSGAEVKKPGASVKVSCKASGYTFTDYNMDWVKQAPGQGLEWIGDINPNNADTIYNQKFKGRVTLTVDKSTSTVYMELSSLRSEDTAVYYCARGDYDGYYPVYYAMDYWGQGTTVTVSS VL: ENVLTQSPATLSLSPGERATLSCRASSSVSSSYLHWYQQKPGQSPRLLIFSTSNLAAGVPARFSGSGSGTDYTLTISSLEPEDFAVYYCQQYSGYPLTFGGGTKVEIK", "Maximum mean fluorescence intensity / MFI": 18900}
{"binder": "Humanized antibody h75G7C6-10 (antibody, human IgG1, V domains shown, also called VH-g1/VL-g1) VH: QVQLVQSGAEVKKPGASVKVSCKASGYTFTDYNMDWVRQAPGQGLEWIGDINPNNADTIYNQKFKGRVTLTVDTSTSTVYMELSSLRSEDTAVYYCARGDYDGYYPVYYAMDYWGQGTTVTVSS VL: ENVLTQSPATLSLSPGERATLSCRASSSVSSSYLHWYQQKPGQAPRLLIFSTSNLAAGIPARFSGSGSGTDYTLTISSLEPEDFAVYYCQQYSGYPLTFGGGTKVEIK", "Maximum mean fluorescence intensity / MFI": 18000}
{"binder": "Humanized antibody h63A10A7-39 (antibody, human IgG1, V domains shown, also called VH-g8/VL-g3) VH: QVQLVQSGAEVKKPGASVKVSCKASGYTFISFTMHWVKQRPGQGLEWIGYINPNSGYTKYNQKFKDRVTLTRDTSTSTVYMELSSLRSEDTAVYYCTRGGGRGFAYWGQGTLVTVSS VL: DIQMTQSPSSLSASVGDRVTITCHASQDINSNIGWLQQKPGKSFKALIYHGTNLEDGVPSRFSGSGSGADYTLTISSLQPEDFATYYCVQYAQFPFTFGQGTKLEIK", "Maximum mean fluorescence intensity / MFI": 10700}
